system: NCI-H23 lung; assay: NCI-60 one-dose screen, 48 h; settings: 10 µM unless noted
About 83,000 compounds went through this panel and 20% of them were active in at least one assay; those are over-represented in the sample as a whole. Calls of active or inactive are those of the source. Rule for the calls: active = growth percent below 10; inactive = the rest.
Outcome field: choose from active, inactive

# input Test call, this compound: `COc1ccc2[nH]cc(-c3nc(-c4c[nH]c5c(Cl)nccc45)cs3)c2c1`
# output inactive

# input Test call, this compound: `O=C(Oc1ccc(CCl)cc1)c1ccccc1`
# output active

# input Test call, this compound: `S=c1[nH]c(=S)c2c(-c3ccccc3)c(-c3ccccc3)oc2[nH]1`
# output inactive

# input Test call, this compound: CCN1C(=O)N(CC)C2C1NN=c1s/c(=C\c3cnc(C)n3C)c(=O)n12 (stereo not given)
# output inactive

# input Test call, this compound: `CC[C@]12C=CCN3CC[C@@]4(c5ccc(OC)cc5N(C)[C@H]4[C@@](O)(C(=O)OC)[C@@H]1OC(=O)CCC[P+](c1ccccc1)(c1ccccc1)c1ccccc1)[C@@H]32`
# output active

# input Test call, this compound: `C=C(C)[C@@H]1CC[C@]2(C)[C@H](CC=C3[C@@H]4CC(C)(C)CC[C@]4(CO)CC[C@]32C)[C@@]1(C)CCCN`
# output inactive

# input Test call, this compound: `COc1ccc(/C=C/C(=O)c2cc(OC)c(OC)c(OC)c2)cc1OCC(=O)Nc1nc2ccc(OC(F)(F)F)cc2s1`
# output inactive

# input Test call, this compound: `C[n+]1ccc(CCc2c[nH]c3ccccc23)cc1`
# output inactive

# input Test call, this compound: `O=C(N=Nc1c(O)[nH]c2ccccc12)Nc1ccc(F)cc1`
# output inactive

# input Test call, this compound: `CC(C)(C)c1cc(Cl)c(O)c(CNCCO)c1`
# output inactive
